# tested target: Sodium-dependent noradrenaline transporter (Homo sapiens, UniProt P23975)
# Sequence (P23975 whole entry): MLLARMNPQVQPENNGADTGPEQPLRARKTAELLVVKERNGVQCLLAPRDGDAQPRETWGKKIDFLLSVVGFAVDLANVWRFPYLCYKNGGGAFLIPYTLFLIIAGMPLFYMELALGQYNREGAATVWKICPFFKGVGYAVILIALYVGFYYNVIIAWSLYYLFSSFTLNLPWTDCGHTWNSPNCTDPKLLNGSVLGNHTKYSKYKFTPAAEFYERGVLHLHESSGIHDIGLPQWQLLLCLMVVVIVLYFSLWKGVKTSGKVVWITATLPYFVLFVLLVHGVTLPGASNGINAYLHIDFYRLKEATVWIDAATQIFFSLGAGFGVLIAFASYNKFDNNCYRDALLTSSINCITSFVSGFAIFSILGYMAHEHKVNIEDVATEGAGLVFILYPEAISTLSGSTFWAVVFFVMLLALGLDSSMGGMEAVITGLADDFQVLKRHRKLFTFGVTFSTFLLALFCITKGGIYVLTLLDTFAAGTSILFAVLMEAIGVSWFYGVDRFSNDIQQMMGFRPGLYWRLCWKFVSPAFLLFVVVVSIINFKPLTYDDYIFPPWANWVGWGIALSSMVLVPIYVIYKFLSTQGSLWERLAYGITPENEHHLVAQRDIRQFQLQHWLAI
# assay remarks: Compound was tested for its ability to inhibit the uptake of Norepinephrine in Norepinephrine transporter system
pIC50: −log10 of the molar value.
endpoint name: pIC50

[[record]]
structure_as_smiles = "c1ccc(CCCN2CCN(CCOC(c3ccccc3)c3ccccc3)CC2)cc1"
tested_target = "Sodium-dependent noradrenaline transporter (Homo sapiens, UniProt P23975)"
reading = 5.90

